B1: LOC100129726 (parent)
chain: VHTGCHKKLGPEARRPRTRWGKN

# Variants of: B1
# MEASUREMENT_NOTES: protein stability index of a GFP-peptide fusion (GPS, HEK-293T) (PSI 1-6); higher = more stable;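 further: lentivirally expressed fusions sorted by FACS into six bins by GFP to DsRed ratio, PSI derived from sequencing read proportions per bin multiplied by bin number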
# PARTICULARS: c terminus: native
// label = satisfied if protein stability index is not less than 2, otherwise not satisfied

Sample answers from the record:
# MUTATION_NOTATION, QUALITATIVE_LABEL
records = [
    ("C5K", "satisfied"),
    ("N23W", "satisfied"),
    ("K8C", "not satisfied"),
    ("K8P", "satisfied"),
    ("K22I", "satisfied"),
    ("P11Y", "satisfied"),
]

Prompt line: Does C5T have a reported protein stability index of at least 2?
Response line: satisfied

Prompt line: Does H6G have a reported protein stability index of at least 2?
Response line: not satisfied

Prompt line: Does E12K have a reported protein stability index of at least 2?
Response line: not satisfied

Prompt line: Does H2K have a reported protein stability index of at least 2?
Response line: not satisfied

Prompt line: Does E12D have a reported protein stability index of at least 2?
Response line: satisfied

Prompt line: Does R14A have a reported protein stability index of at least 2?
Response line: satisfied

Prompt line: Does W20L have a reported protein stability index of at least 2?
Response line: satisfied

Prompt line: Does C5R have a reported protein stability index of at least 2?
Response line: satisfied

Prompt line: Does T3Y have a reported protein stability index of at least 2?
Response line: not satisfied

Prompt line: Does L9Q have a reported protein stability index of at least 2?
Response line: satisfied

Prompt line: Does G4E have a reported protein stability index of at least 2?
Response line: satisfied

Prompt line: Does K22T have a reported protein stability index of at least 2?
Response line: satisfied

Prompt line: Does C5W have a reported protein stability index of at least 2?
Response line: not satisfied
